Origin of values: patent US8853418B2

- assayedSystem: N-type calcium channel (Homo sapiens, UniProt Q00975)
- assayNotes: Automated Electrophysiology Assay (QPatch-HT whole-cell patch clamp; low- and high-frequency stimulation)
- Assay type: cell-based
- testConditions: low frequency; 0.1 μM; read-out: QPatch at Low Frequency % Inhibition
assayReadout: inhibition at 0.1 µM (%)

INSERT INTO assay_data (molecule, assayreadout, numericvalue) VALUES
  ('COc1ccccc1-n1nc2c(c1-c1ccc(Cl)cc1)C[C@H](O[C@H]1C[C@@H]3CC[C@H]1C3)C2 [Compound 89]', 'inhibition at 0.1 µM', 6),
  ('CCOc1ccccc1-n1nc2c(c1-c1ccc(Cl)cc1)C[C@@H](n1ccnc1)C2 [Compound 43]', 'inhibition at 0.1 µM', -22),
  ('COc1ccccc1-n1nc2c(c1-c1ccc(Cl)cc1)C[C@H](OC(=O)C1CCCCC1)C2 [Compound 78]', 'inhibition at 0.1 µM', 15),
  ('COc1ccc(-c2c3c(nn2-c2ccccc2OC)C[C@H](N(C)S(=O)(=O)N(C)C)C3)cn1 [Compound 56]', 'inhibition at 0.1 µM', -1),
  ('COc1ccccc1-n1nc2c(c1-c1ccc(Cl)cc1)CC1(C2)OCC(C)(C)CO1 [Compound 71]', 'inhibition at 0.1 µM', 21),
  ('CCOc1ccccc1-n1nc2c(c1-c1ccc(Cl)cc1)CC(OC(=O)N1CCOCC1)C2 (stereo not shown) [Compound 31]', 'inhibition at 0.1 µM', 14),
  ('COc1ccccc1-n1nc2c(c1-c1ccc(Cl)cc1)CC1(C2)O[C@@H](C)[C@H](C)O1 [Compound 99]', 'inhibition at 0.1 µM', -4),
  ('COc1ccccc1-n1nc2c(c1-c1ccc(N(C)C)cc1)CC1(C2)OC(C)(C)C(C)(C)O1 [Compound 107]', 'inhibition at 0.1 µM', 34),
  ('O=C1Cc2nn(-c3ccccc3OC(F)(F)F)c(-c3ccc(Cl)cc3)c2C1 [Compound 27]', 'inhibition at 0.1 µM', -16),
  ('COc1ccccc1-n1nc2c(c1-c1ccc(N(C)C)cc1)CC1(C2)OCC(C)(C)CO1 [Compound 93]', 'inhibition at 0.1 µM', 12),
  ('CCOc1ccccc1-n1nc2c(c1-c1ccc(Cl)cc1)CC(N1C(=O)CCC1=O)C2 (stereo not shown) [Compound 38]', 'inhibition at 0.1 µM', 47),
  ('CCOc1ccccc1-n1nc2c(c1-c1ccc(Cl)cc1)CC(=O)C2 [Compound 36]', 'inhibition at 0.1 µM', 18),
  ('COc1ccccc1-n1nc2c(c1-c1ccc(Cl)cc1)C[C@H](OC(=O)C1CCCC1)C2 [Compound 79]', 'inhibition at 0.1 µM', -7),
  ('COc1ccccc1-n1nc2c(c1-c1ccc(Cl)cc1)C[C@H](OC(C)C)C2 [Compound 67]', 'inhibition at 0.1 µM', 48),
  ('COc1ccccc1-n1nc2c(c1-c1ccc(Cl)cc1)CC1(C2)O[C@H](C)C[C@@H](C)O1 (stereo partly shown) [Compound 100]', 'inhibition at 0.1 µM', 46),
  ('COc1ccccc1-n1nc2c(c1-c1ccc(Cl)cc1)CC1(C2)O[C@H]2CCC[C@@H]2O1 [Compound 113]', 'inhibition at 0.1 µM', -4),
  ('CN(C)S(=O)(=O)N(C)[C@@H]1Cc2nn(-c3cccc4c3OCC4)c(-c3ccc(Cl)cc3)c2C1 [Compound 50]', 'inhibition at 0.1 µM', 33),
  ('COc1ccccc1-n1nc2c(c1-c1ccc(Cl)cc1)CC1(C2)O[C@H]2CCCC[C@H]2O1 (stereo partly shown) [Compound 112]', 'inhibition at 0.1 µM', 7),
  ('COc1ccccc1-n1nc2c(c1-c1ccc(C#N)cc1)CC(CC(C)C)C2 (stereo not shown) [Compound 105]', 'inhibition at 0.1 µM', -1),
  ('COc1ccc(-c2c3c(nn2-c2ccccc2OC)CC2(C3)OCC(C)(C)CO2)cn1 [Compound 96]', 'inhibition at 0.1 µM', -1),
  ('COc1ccccc1-n1nc2c(c1-c1ccc(Cl)cc1)C[C@H](OC1CCCCO1)C2 (stereo partly shown) [Compound 76]', 'inhibition at 0.1 µM', 27),
  ('COc1ccccc1-n1nc2c(c1-c1ccc(Cl)cc1)CC(N1CCOCC1)C2 (stereo not shown) [Compound 68]', 'inhibition at 0.1 µM', 33);

====

- assayedSystem: N-type calcium channel (α1B (Cav2.2), β3 and α2δ subunits) (Homo sapiens)
- assayNotes: Functional Assay: Antagonism of N-Type Calcium Channel (FDSS calcium mobilization, KCl depolarization)
- Format: cell-based
- testConditions: 0.33 μM
assayReadout: inhibition at 0.33 µM (%)

INSERT INTO results (compound, numericvalue) VALUES
  ('COc1ccccc1-n1nc2c(c1-c1ccc(Cl)s1)CC1(C2)OCC(C)(C)CO1 [Compound 120]', 78),
  ('COc1ccc(-c2c3c(nn2-c2ccccc2OC)C[C@H](N(C)S(=O)(=O)N(C)C)C3)cn1 [Compound 56]', 93),
  ('COc1ccccc1-n1nc2c(c1-c1ccc(C#N)cc1)C[C@H](n1c(C)nc(C)c1C)C2 [Compound 132]', 29),
  ('CCOc1ccc(-c2c3c(nn2-c2ccccc2OC)CC2(C3)OCC(C)(C)CO2)cn1 [Compound 94]', 81),
  ('COc1ccccc1-n1nc2c(c1-c1ccc(Cl)cc1)C[C@H](OC(=O)C(C)C)C2 [Compound 81]', 86),
  ('COc1ccccc1-n1nc2c(c1-c1ccc(N(C)C)cc1)CC1(C2)OCC(C)(C)CO1 [Compound 93]', 91),
  ('COc1ccccc1-n1nc2c(c1-c1ccc(Cl)cc1)CC(N1CCC(F)(F)C1)C2 (centres unmarked) [Compound 123]', 91),
  ('COc1ccccc1-n1nc2c(c1-c1ccc(Cl)cc1)C[C@H](OC1CCCC1)C2 [Compound 90]', 89),
  ('COc1ccccc1-n1nc2c(c1-c1ccc(Cl)cc1)C[C@H](O[Si](C)(C)C)C2 [Compound 69]', 93),
  ('COc1ccccc1-n1nc2c(c1-c1ccc(Cl)cc1)CC(c1cccnc1)C2 (centres unmarked) [Compound 63]', 98),
  ('COc1ccccc1-n1nc2c(c1-c1ccc(Cl)cc1)CC(CCNS(C)(=O)=O)C2 (centres unmarked) [Compound 11]', 99);

====

- assayedSystem: N-type calcium channel (α1B (Cav2.2), β3 and α2δ subunits) (Homo sapiens)
- assayNotes: Functional Assay: Antagonism of N-Type Calcium Channel (FDSS calcium mobilization, KCl depolarization)
- Assay type: cell-based
- testConditions: 0.33 μM
assayReadout: inhibition at 0.33 µM (%)

INSERT INTO assay_data (compound, resultunits, numericvalue) VALUES
  ('COc1ccccc1-n1nc2c(c1-c1ccc(C#N)cc1)C[C@H](n1cc(COC(C)=O)nn1)C2', '%', 59),
  ('COc1ccccc1-n1nc2c(c1-c1ccc(Cl)cc1)C[C@H](Oc1ccccc1)C2', '%', 65),
  ('COc1ccccc1-n1nc2c(c1-c1ccc(Cl)cc1)CC1(C2)O[C@H](C)[C@@H](C)O1', '%', 102),
  ('CCc1nc(C)n([C@@H]2Cc3nn(-c4ccccc4OC)c(-c4ccc(C#N)cc4)c3C2)c1CC', '%', 63),
  ('COc1cc(Cl)ccc1-n1nc2c(c1-c1ccc(Cl)cc1)CC1(C2)OCCCO1', '%', 64),
  ('COc1ccccc1-n1nc2c(c1-c1ccc(C#N)cc1)C[C@H](n1cc(C(C)(C)O)nn1)C2', '%', 33),
  ('COc1ccccc1-n1nc2c(c1-c1ccccc1)CC(CNS(C)(=O)=O)C2 (centres unmarked)', '%', 68),
  ('COc1ccccc1-n1nc2c(c1-c1ccc(C#N)cc1)CC1(C2)OC(C)(C)C(C)(C)O1', '%', 90);

====

- assayedSystem: N-type calcium channel (α1B (Cav2.2), β3 and α2δ subunits) (Homo sapiens, UniProt Q00975)
- Sequence (Q00975 whole entry): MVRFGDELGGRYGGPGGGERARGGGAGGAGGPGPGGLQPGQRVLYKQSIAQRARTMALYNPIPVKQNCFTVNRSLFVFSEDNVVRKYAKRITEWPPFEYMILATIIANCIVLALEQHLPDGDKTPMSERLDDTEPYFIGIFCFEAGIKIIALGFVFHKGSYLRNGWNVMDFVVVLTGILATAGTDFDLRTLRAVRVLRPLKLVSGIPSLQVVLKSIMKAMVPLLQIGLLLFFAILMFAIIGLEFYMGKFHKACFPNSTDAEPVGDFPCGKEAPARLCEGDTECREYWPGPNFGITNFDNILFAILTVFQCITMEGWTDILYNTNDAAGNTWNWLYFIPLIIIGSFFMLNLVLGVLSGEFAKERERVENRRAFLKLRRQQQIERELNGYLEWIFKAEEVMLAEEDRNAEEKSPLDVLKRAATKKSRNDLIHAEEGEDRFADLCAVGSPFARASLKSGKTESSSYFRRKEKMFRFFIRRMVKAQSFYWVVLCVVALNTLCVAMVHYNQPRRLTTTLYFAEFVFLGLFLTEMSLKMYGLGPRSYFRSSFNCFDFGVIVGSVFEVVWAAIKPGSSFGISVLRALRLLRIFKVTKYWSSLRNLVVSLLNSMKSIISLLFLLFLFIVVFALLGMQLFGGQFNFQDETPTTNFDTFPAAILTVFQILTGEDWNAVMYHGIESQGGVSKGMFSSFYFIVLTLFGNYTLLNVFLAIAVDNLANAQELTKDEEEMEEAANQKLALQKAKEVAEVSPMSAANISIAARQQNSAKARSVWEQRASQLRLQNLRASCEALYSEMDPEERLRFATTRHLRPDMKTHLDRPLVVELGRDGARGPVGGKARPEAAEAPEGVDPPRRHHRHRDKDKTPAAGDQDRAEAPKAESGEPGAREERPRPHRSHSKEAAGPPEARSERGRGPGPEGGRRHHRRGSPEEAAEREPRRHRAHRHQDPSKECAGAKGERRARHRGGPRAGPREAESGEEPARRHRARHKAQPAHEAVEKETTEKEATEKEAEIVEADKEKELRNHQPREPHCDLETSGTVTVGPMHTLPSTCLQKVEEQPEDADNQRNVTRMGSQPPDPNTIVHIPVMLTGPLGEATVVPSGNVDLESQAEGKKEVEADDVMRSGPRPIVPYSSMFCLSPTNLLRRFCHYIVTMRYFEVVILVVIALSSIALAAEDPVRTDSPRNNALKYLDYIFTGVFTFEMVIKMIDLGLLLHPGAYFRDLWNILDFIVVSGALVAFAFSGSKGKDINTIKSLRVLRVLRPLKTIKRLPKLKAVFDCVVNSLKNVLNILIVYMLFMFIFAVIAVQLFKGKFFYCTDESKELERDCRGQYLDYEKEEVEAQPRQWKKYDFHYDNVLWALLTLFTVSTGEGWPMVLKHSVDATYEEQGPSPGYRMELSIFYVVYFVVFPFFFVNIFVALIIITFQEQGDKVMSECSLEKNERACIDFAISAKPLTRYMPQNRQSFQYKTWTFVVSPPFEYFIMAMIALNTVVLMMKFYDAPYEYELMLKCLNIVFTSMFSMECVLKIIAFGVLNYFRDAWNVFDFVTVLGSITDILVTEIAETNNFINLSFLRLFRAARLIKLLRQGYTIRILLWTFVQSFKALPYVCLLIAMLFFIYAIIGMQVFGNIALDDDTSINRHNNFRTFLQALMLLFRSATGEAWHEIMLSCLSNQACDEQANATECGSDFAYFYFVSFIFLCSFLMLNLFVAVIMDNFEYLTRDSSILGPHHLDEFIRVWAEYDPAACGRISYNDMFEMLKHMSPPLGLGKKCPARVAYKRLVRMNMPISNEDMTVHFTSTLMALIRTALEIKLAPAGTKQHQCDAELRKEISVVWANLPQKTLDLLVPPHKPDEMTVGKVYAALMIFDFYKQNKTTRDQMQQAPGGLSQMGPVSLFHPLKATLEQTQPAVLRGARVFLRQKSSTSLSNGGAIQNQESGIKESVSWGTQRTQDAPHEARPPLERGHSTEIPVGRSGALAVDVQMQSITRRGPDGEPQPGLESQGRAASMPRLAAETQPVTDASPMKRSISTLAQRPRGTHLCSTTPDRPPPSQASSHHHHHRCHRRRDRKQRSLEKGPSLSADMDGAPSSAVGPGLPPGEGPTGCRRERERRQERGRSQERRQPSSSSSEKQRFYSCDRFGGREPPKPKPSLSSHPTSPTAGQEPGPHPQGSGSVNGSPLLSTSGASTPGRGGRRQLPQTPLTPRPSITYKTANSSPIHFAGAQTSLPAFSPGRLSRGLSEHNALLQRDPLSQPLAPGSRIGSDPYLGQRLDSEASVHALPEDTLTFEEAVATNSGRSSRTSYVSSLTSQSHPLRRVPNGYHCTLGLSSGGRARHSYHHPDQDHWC
- Sequence (P54284 whole entry partner): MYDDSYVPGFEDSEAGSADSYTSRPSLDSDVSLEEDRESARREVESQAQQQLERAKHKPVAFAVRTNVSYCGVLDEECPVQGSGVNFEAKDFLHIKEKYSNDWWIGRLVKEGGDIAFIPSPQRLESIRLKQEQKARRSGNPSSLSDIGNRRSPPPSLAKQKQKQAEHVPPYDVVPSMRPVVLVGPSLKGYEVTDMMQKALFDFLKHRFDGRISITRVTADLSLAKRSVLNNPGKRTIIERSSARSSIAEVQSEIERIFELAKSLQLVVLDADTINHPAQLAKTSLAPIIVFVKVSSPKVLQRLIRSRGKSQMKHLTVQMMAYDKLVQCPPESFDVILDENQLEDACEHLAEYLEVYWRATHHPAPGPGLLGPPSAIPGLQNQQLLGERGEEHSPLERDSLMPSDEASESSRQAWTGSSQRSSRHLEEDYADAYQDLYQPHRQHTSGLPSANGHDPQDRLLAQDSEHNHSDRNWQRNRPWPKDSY
- Sequence (P54289 25-946 partner limits assumed): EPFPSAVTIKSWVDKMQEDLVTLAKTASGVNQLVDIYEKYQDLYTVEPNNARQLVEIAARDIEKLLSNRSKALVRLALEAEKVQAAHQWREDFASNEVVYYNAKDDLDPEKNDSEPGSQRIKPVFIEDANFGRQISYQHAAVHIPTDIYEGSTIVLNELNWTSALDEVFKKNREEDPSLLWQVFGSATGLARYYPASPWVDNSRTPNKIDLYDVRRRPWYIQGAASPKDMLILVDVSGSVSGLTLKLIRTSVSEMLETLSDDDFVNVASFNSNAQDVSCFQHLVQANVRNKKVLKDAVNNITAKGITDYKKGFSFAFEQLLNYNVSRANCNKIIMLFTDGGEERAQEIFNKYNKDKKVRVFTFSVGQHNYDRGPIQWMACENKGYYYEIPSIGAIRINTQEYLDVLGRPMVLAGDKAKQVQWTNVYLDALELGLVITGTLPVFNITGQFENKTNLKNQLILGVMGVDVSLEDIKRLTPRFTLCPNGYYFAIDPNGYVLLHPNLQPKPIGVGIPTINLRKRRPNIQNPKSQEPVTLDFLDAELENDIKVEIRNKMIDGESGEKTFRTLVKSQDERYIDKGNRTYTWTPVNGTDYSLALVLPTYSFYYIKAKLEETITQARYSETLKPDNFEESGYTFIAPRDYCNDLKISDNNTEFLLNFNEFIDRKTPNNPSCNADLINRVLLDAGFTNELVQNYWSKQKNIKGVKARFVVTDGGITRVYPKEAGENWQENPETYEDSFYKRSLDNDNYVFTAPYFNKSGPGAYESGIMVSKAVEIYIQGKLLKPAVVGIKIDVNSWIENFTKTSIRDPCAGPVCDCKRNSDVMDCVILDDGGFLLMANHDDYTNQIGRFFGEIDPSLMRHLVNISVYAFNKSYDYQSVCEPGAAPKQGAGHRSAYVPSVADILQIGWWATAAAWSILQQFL
- Sequence (P54289 947-1103 partner limits assumed): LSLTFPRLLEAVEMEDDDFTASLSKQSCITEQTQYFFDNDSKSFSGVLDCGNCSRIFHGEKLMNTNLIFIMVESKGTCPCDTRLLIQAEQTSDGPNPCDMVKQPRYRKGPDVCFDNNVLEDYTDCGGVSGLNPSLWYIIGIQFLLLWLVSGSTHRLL
- assayNotes: Functional Assay: Antagonism of N-Type Calcium Channel (FDSS calcium mobilization, KCl depolarization)
- Format: cell-based
- testConditions: HEK cell line, 50 mM KCl depolarization, six-point concentration-response; read-out: FDSS IC50
# strict inequality: IC50 < 20 nM yields y, everything else yields n

INSERT INTO measurements (compound, answerlabel) VALUES
  ('CCOc1ccccc1-n1nc2c(c1-c1ccc(Cl)cc1)CC(=O)C2 [Compound 36]', 'n'),
  ('COc1ccccc1-n1nc2c(c1-c1ccc(Cl)cc1)CC1(C2)O[C@@H](C)C[C@H](C)O1 (stereo partly shown) [Compound 101]', 'n'),
  ('CCOc1ccccc1-n1nc2c(c1-c1ccc(Cl)cc1)CC(n1cc([Si](C)(C)C)nn1)C2 (stereo not shown) [Compound 41]', 'n'),
  ('COc1ccccc1-n1nc2c(c1-c1ccc(Cl)s1)CC1(C2)OCC(C)(C)CO1 [Compound 120]', 'n'),
  ('CCOc1ccccc1-n1nc2c(c1-c1ccc(Cl)cc1)C[C@@H](NC(=O)C(F)(F)F)C2 [Compound 45]', 'y'),
  ('COc1ccccc1-n1nc2c(c1-c1ccc(Cl)cc1)CC(OC(=O)N1CCOCC1)C2 (stereo not shown) [Compound 29]', 'n'),
  ('COc1ccc(-c2c3c(nn2-c2ccccc2OC)CC2(C3)OCC(C)(C)CO2)cn1 [Compound 96]', 'n'),
  ('CCOc1ccccc1-n1nc2c(c1-c1ccc(Cl)cc1)CC(NS(=O)(=O)N(C)C)C2 (stereo not shown) [Compound 47]', 'y'),
  ('CCc1ccccc1-n1nc2c(c1-c1ccc(Cl)cc1)CC(COC(=O)N(CC)CC)C2 (stereo not shown) [Compound 17]', 'n'),
  ('COc1ccccc1-n1nc2c(c1-c1ccc(Cl)cc1)CC(NS(C)(=O)=O)C2 (stereo not shown) [Compound 32]', 'n'),
  ('COc1ccccc1-n1nc2c(c1-c1ccc(Cl)cc1)CC1(C2)O[C@@H](C)[C@H](C)O1 [Compound 99]', 'y'),
  ('CCc1ccccc1-n1nc2c(c1-c1ccc(Cl)cc1)CC(CNC(=O)OC(C)(C)C)C2 (stereo not shown) [Compound 16]', 'n'),
  ('COc1ccccc1-n1nc2c(c1-c1ccc(Cl)cc1)CC1(C2)O[C@H]2CCC[C@@H]2O1 [Compound 113]', 'n'),
  ('COc1ccccc1-n1nc2c(c1-c1ccc(Cl)cc1)CC(NS(=O)(=O)N(C)C)C2 (stereo not shown) [Compound 34]', 'y'),
  ('COc1ccccc1-n1nc2c(c1-c1ccc(Cl)cc1)C[C@H](OC(=O)C1CCCCC1)C2 [Compound 78]', 'n'),
  ('CCOc1ccccc1-n1nc2c(c1-c1ccc(Cl)cc1)CC(N1CCCC1=O)C2 (stereo not shown) [Compound 40]', 'y');
